- Tested on: Mus musculus
- Protocol: Antihypoxic effect tested by the ratio of survival time (SVT) of test mice to that of control group, dosed intraperitoneally at 30 mg/kg
- Format: functional
- Condition details: route intraperitoneal
Recorded endpoint: SVT (%)
Quick reminder: number only, in %, skip the unit.

SVT in this record for CCC(C)c1cc(C)c2c(c1O)C(NC(=O)CN1CCN(c3cccc(Cl)c3)CC1)C(C)(C)C2 (stereo not given) : 147.7

The reported SVT of the compound Cc1cccc(N2CCN(CC(=O)NC3CCc4c(C)cc(C)c(O)c43)CC2)c1C (stereo not given) was 134.3

GET /value?item= Cc1cc(C)c2c(c1O)C(NCCN1CCN(c3cccc(Cl)c3)CC1)C(C)(C)C2 (stereo not given) &field=SVT returns 141.3

Recorded SVT (compound CCC(C)c1cc(C)c2c(c1O)C(NC(=O)CN1CCN(c3cccc(C)c3)CC1)CC2 (stereo not given) ): 172.2

The measured SVT associated with Cc1cc(C)c2c(c1O)C(N)C(C)(C)C2 (stereo not given) reads 298.1

Kindly note the recorded SVT for `NC(=O)[C@@H]1CCCN1C(=O)[C@H](Cc1c[nH]cn1)NC(=O)[C@@H]1CCC(=O)N1` , which is 43.4

In plain terms, CCC(C)c1cc(C)c2c(c1O)C(NC(=O)CN1CCN(c3cccc(OC)c3)CC1)CC2 (stereo not given) has a documented SVT of 218.5

Documented SVT of Cc1cc(C)c2c(c1O)C(NC(=O)CN1CCSCC1)C(C)(C)C2 (stereo not given) : 100.8

CCC(C)c1cc(C)c2c(c1O)C(NC(=O)CN1CCN(c3cccc(Cl)c3Cl)CC1)CC2 (stereo not given) yielded SVT of 122.4

# compound CCC(C)c1cc(C)c2c(c1O)C(NC(=O)CN1CCN(c3ccccc3)CC1)CC2 (stereo not given) ; its SVT = 89.3
